- tgt: human TRPA1 ion channel (Homo sapiens, UniProt O75762)
- Sequence (O75762 whole entry): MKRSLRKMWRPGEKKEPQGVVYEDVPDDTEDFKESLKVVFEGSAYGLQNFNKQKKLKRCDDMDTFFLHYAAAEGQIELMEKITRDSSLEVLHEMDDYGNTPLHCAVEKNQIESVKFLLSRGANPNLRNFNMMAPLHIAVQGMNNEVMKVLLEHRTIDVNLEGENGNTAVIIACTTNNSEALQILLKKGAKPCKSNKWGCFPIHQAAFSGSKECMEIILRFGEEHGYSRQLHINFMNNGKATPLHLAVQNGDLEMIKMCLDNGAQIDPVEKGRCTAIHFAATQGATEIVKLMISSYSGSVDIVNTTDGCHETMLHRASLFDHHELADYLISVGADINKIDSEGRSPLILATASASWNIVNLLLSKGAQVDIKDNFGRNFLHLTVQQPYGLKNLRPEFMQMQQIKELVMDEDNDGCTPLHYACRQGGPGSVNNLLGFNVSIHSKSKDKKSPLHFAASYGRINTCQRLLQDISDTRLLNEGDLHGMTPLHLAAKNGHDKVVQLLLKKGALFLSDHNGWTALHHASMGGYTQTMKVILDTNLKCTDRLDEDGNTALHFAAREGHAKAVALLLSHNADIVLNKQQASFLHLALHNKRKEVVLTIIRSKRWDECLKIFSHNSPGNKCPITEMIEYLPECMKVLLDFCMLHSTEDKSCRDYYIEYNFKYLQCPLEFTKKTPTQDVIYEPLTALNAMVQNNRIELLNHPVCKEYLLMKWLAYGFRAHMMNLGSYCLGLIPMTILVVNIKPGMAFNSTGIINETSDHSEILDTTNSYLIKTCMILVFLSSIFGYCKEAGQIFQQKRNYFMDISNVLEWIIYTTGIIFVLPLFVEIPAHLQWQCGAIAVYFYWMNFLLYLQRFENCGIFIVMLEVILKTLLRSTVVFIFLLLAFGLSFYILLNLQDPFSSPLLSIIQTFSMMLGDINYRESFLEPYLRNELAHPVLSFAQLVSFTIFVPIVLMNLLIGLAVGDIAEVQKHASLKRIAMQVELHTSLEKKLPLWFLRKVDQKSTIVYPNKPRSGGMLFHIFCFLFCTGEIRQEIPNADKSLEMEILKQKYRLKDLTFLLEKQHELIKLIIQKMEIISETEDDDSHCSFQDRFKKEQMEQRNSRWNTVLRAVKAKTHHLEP
- assayOverview: Assay A: TRPA1 assay (FLIPR calcium, AITC agonism)
- conditionNotes: compounds of the invention; HEK293 over-expressing human TRPA1, AITC final 10 μM, FLIPRtetra; read-out: hTRPA1 IC50
pIC50: −log10 of the molar value.
pIC50: recorded values
experimentalReadout: pIC50

{"sampleSmiles": "CN1C(=O)COc2ncn(Cc3nc(C[C@H](O)c4cc5ccc(F)cc5s4)no3)c(=O)c21", "tgt": "human TRPA1 ion channel (Homo sapiens, UniProt O75762)", "observed": 7.92}
{"sampleSmiles": "CN1C(=O)COc2ncn(Cc3nc(C[C@H](O)c4ccc(I)cc4)no3)c(=O)c21", "tgt": "human TRPA1 ion channel (Homo sapiens, UniProt O75762)", "observed": 7.41}
{"sampleSmiles": "CN1C(=O)COc2ncn(Cc3nc(C[C@H](O)c4ccc(Cl)cc4)no3)c(=O)c21", "tgt": "human TRPA1 ion channel (Homo sapiens, UniProt O75762)", "observed": 7.24}
{"sampleSmiles": "Cc1ccc([C@@H](O)Cc2noc(Cn3cnc4c(c3=O)N(C)C(=O)CO4)n2)cc1", "tgt": "human TRPA1 ion channel (Homo sapiens, UniProt O75762)", "observed": 6.92}
{"sampleSmiles": "CN1C(=O)COc2ncn(Cc3nc(C[C@H](O)c4cc5cc(F)ccc5o4)no3)c(=O)c21", "tgt": "human TRPA1 ion channel (Homo sapiens, UniProt O75762)", "observed": 7.41}
{"sampleSmiles": "CN1C(=O)COc2ncn(Cc3nc(C[C@H](O)c4cc5cc(Cl)ccc5o4)no3)c(=O)c21", "tgt": "human TRPA1 ion channel (Homo sapiens, UniProt O75762)", "observed": 7.29}
{"sampleSmiles": "CN1C(=O)COc2ncn(Cc3nc(C[C@H](O)c4cc5ccccc5s4)no3)c(=O)c21", "tgt": "human TRPA1 ion channel (Homo sapiens, UniProt O75762)", "observed": 7.57}

---

- assayOverview: Assay C: Hepatocyte clearance
- Format: in vitro ADME, human
- conditionNotes: compounds of the invention; hepatocyte suspension, 5% species serum, 1 μM compound, up to 6 h

{"sampleSmiles": "Cc1ccc([C@@H](O)Cc2noc(Cn3cnc4c(c3=O)N(C)C(=O)CO4)n2)cc1", "human Hepatocytes / % Qh": 9}
{"sampleSmiles": "CN1C(=O)COc2ncn(Cc3nc(C[C@H](O)c4cc5cc(Cl)ccc5o4)no3)c(=O)c21", "human Hepatocytes / % Qh": 37}
{"sampleSmiles": "CN1C(=O)COc2ncn(Cc3nc(C[C@H](O)c4cc5ccccc5s4)no3)c(=O)c21", "human Hepatocytes / % Qh": 31}
{"sampleSmiles": "CN1C(=O)COc2ncn(Cc3nc(C[C@H](O)c4ccc(I)cc4)no3)c(=O)c21", "human Hepatocytes / % Qh": 22}
{"sampleSmiles": "CN1C(=O)COc2ncn(Cc3nc(C[C@H](O)c4ccc(Cl)cc4)no3)c(=O)c21", "human Hepatocytes / % Qh": 9}
{"sampleSmiles": "CN1C(=O)COc2ncn(Cc3nc(C[C@H](O)c4cc5cc(F)ccc5o4)no3)c(=O)c21", "human Hepatocytes / % Qh": 22}
{"sampleSmiles": "CN1C(=O)COc2ncn(Cc3nc(C[C@H](O)c4cc5ccc(F)cc5s4)no3)c(=O)c21", "human Hepatocytes / % Qh": 34}
